Task for the reader: assign each of the following compounds its reported viability, T/C.
Tested on: 475296-252-R-J1-PDC spheroid viability
Assay: Anticancer human tumor 475296-252-R-J1-PDC patient-derived rectal carcinoma cell line growth inhibition [PI3K]
Conditions: second compound 10 µM; first compound 0.316 µM; hits give low values; spheroids with HUVEC and MSC
Report the value in % with no unit label.

Prompt: GET /values?readout=viability, T/C&item= CCN1CCN(Cc2ccc(Nc3ncc(F)c(-c4cc(F)c5nc(C)n(C(C)C)c5c4)n3)nc2)CC1 + Cc1nc(NC(=O)N2CCCC2C(N)=O)sc1-c1ccnc(C(C)(C)C(F)(F)F)c1
Response: 90.4

Prompt: GET /values?readout=viability, T/C&item= C=CC(=O)N1CCN(c2nc(=O)n(-c3c(C)ccnc3C(C)C)c3nc(-c4c(O)cccc4F)c(F)cc23)C(C)C1 (stereo not drawn) + CC(Nc1ncnc2nc[nH]c12)c1cc2cccc(Cl)c2c(=O)n1-c1ccccc1
Response: 86.9

Prompt: GET /values?readout=viability, T/C&item= C#Cc1c(F)ccc2cc(O)cc(-c3ncc4c(N5CC6CCC(C5)N6)nc(OCC56CCCN5CC(F)C6)nc4c3F)c12 (stereo not drawn) + Cc1nc(NC(=O)N2CCCC2C(N)=O)sc1-c1ccnc(C(C)(C)C(F)(F)F)c1
Response: 46.6

* * *

Test system: 475296-252-R-J1-PDC spheroid viability
Assay: Anticancer human tumor 475296-252-R-J1-PDC cell line growth inhibition [PI3K];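 further: spheroids exposed to agents for seven days before readout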
Settings: second compound 0.01 µM; first compound 1 µM; hits give low values; spheroids with HUVEC and MSC
Values of viability, T/C strictly less than 90% map to 1, and values of at least 90% map to 0.

Prompt: viability, T/C strictly < 90% for this compound? CC(Cn1ccc(-c2ccc(C#N)c(Cl)c2)n1)NC(=O)c1cc(C(C)O)[nH]n1 (stereo not given) + COc1c(OCCCN2CCOCC2)ccc2c3n(c(=NC(=O)c4cnc(N)nc4)nc12)CCN3
Response: 0

Prompt: viability, T/C strictly < 90% for this compound? Cn1nccc1Nc1nccc(-c2ccn(C(CO)c3ccc(Cl)c(F)c3)c(=O)c2)n1 (stereo not given) + COc1c(OCCCN2CCOCC2)ccc2c3n(c(=NC(=O)c4cnc(N)nc4)nc12)CCN3
Response: 1

Prompt: viability, T/C strictly < 90% for this compound? CCN1CCN(Cc2ccc(Nc3ncc(F)c(-c4cc(F)c5nc(C)n(C(C)C)c5c4)n3)nc2)CC1 + COc1c(OCCCN2CCOCC2)ccc2c3n(c(=NC(=O)c4cnc(N)nc4)nc12)CCN3
Response: 1

Prompt: viability, T/C strictly < 90% for this compound? C=CC(=O)N1CCN(c2nc(=O)n(-c3c(C)ccnc3C(C)C)c3nc(-c4c(O)cccc4F)c(F)cc23)C(C)C1 (stereo not given) + COc1c(OCCCN2CCOCC2)ccc2c3n(c(=NC(=O)c4cnc(N)nc4)nc12)CCN3
Response: 0

Prompt: viability, T/C strictly < 90% for this compound? Cn1ncc(Cl)c1-c1cc(C(=O)NC(CN)Cc2cccc(F)c2)sc1Cl (stereo not given) + COc1c(OCCCN2CCOCC2)ccc2c3n(c(=NC(=O)c4cnc(N)nc4)nc12)CCN3
Response: 1

* * *

Tested on: 475296-252-R-J1-PDC spheroid viability
Assay: Anticancer human tumor 475296-252-R-J1-PDC cell line growth inhibition [PI3K];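 further: spheroids exposed to agents for seven days before readout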
Conditions: second compound 0.0316 µM; first compound 0.1 µM; hits give low values; spheroids with HUVEC and MSC
measurement_name: viability, T/C

Prompt: GET /values?readout=viability, T/C&item= Cn1ncc(Cl)c1-c1cc(C(=O)NC(CN)Cc2cccc(F)c2)sc1Cl (stereo not given) + Cc1nc(NC(=O)N2CCCC2C(N)=O)sc1-c1ccnc(C(C)(C)C(F)(F)F)c1
Response: 74.3%

Prompt: GET /values?readout=viability, T/C&item= CNC(=O)c1ccc(N2C(=S)N(c3ccc(C#N)c(C(F)(F)F)c3)C(=O)C2(C)C)cc1F + CC(Nc1ncnc2nc[nH]c12)c1cc2cccc(Cl)c2c(=O)n1-c1ccccc1
Response: 92.1%

Prompt: GET /values?readout=viability, T/C&item= CC(C)NCC(C(=O)N1CCN(c2ncnc3c2C(C)CC3O)CC1)c1ccc(Cl)cc1 (stereo not given) + Cc1nc(NC(=O)N2CCCC2C(N)=O)sc1-c1ccnc(C(C)(C)C(F)(F)F)c1
Response: 90.3%

Prompt: GET /values?readout=viability, T/C&item= C=CC(=O)N1CCN(c2nc(=O)n(-c3c(C)ccnc3C(C)C)c3nc(-c4c(O)cccc4F)c(F)cc23)C(C)C1 (stereo not given) + CC(Nc1ncnc2nc[nH]c12)c1cc2cccc(Cl)c2c(=O)n1-c1ccccc1
Response: 98.7%

Prompt: GET /values?readout=viability, T/C&item= C#Cc1c(F)ccc2cc(O)cc(-c3ncc4c(N5CC6CCC(C5)N6)nc(OCC56CCCN5CC(F)C6)nc4c3F)c12 (stereo not given) + CC(Nc1ncnc2nc[nH]c12)c1cc2cccc(Cl)c2c(=O)n1-c1ccccc1
Response: 73.8%

// data source = PubChem BioAssay AID1963980
